# assay_text: protein stability index of a GFP-peptide fusion (yeast GPS) (PSI 1-4); higher = more stable; sorted into four equal gates, so the index is relative within each strain
# cond: san1∆
measured_property: protein stability index

// protein stability index lookup, sequence = NEQEEKSEEVKAEDDTG [RPC37] , result: 2.94

// protein stability index lookup, sequence = RKDENQFSYVDSSMTTV [AAR2] , result: 3

// protein stability index lookup, sequence = LNESRSQHKKILEELDF [SMC3] , result: 3.01

// protein stability index lookup, sequence = TPESVKPANASHAIRLG [RGR1] , result: 2.98

// protein stability index lookup, sequence = DDHSQVINPQQLLKGLS [DSN1] , result: 3.03

// protein stability index lookup, sequence = VVSCSQHGFEVQVGPMK [RPB7] , result: 3.02

// protein stability index lookup, sequence = SEHDKKRLSAALSKFLT [YML103C/NUP188] , result: 3.06

// protein stability index lookup, sequence = NTTKPAFGGLNFGGGNN [YJL041W/NSP1] , result: 3.01

---

# assay_text: protein stability index of a GFP-peptide fusion (yeast GPS) (PSI 1-4); higher = more stable; sorted into four equal gates, so the index is relative within each strain
# cond: doa10∆
measured_property: protein stability index
Answer with a number only.

// protein stability index lookup, sequence = APIGKHYVVLDTNVVLQ [DIS3] , result: 2.93

// protein stability index lookup, sequence = QILTVDPKTSLRIVKPT [RPC82] , result: 3.07

// protein stability index lookup, sequence = AVSRSMTDIWNTLIPES [ECM29] , result: 2.94

// protein stability index lookup, sequence = IIDEIITQMRVNDEEEH [RPC82] , result: 3

// protein stability index lookup, sequence = LLTAKHGMTLRESFEDN [RPO21] , result: 2.96

---

# assay_text: protein stability index of a GFP-peptide fusion (yeast GPS) (PSI 1-4); higher = more stable; sorted into four equal gates, so the index is relative within each strain
# cond: san1∆
Assign protein stability index to each entry below.

// protein stability index lookup, sequence = IKEKVQFNATINPESRE [ITC1] , result: 1.97

// protein stability index lookup, sequence = YVNVAISIYNMLPPKSV [SSN2] , result: 2.01

// protein stability index lookup, sequence = RLLPNGSNKAQISIIDI [YML031W/NDC1] , result: 2.6

// protein stability index lookup, sequence = VYANNPEVSDDGGLEEE [SIR3] , result: 2.52

// protein stability index lookup, sequence = ATNRVDVLDPALLRSGR [RPT5] , result: 3.04

// protein stability index lookup, sequence = PIKNRKNDTHYLLPDDF [BRN1] , result: 2.85

// protein stability index lookup, sequence = LSLKRTLTDILEDELYH [RPN4] , result: 3.47

// protein stability index lookup, sequence = RGSSSLYTLVINDAGKA [RPL38] , result: 1.17

// protein stability index lookup, sequence = FKSTESNISDEKSRISE [YMR129W/POM152] , result: 2.78

// protein stability index lookup, sequence = GGKIINKLGNDPSLNLK [BRR2] , result: 1.91

// protein stability index lookup, sequence = TAVKQGVTSLGIKATNG [PRE8] , result: 1.87

// protein stability index lookup, sequence = IDRPKHELSRAELEELE [SMD2] , result: 3.32

// protein stability index lookup, sequence = LNELHPTLPTNHNKTKL [PRP8] , result: 2.84

// protein stability index lookup, sequence = KYPIFTGESWVKLTYNS [YDL088C/ASM4] , result: 2.07
